Assignment: determine reported EC50 for the given molecules.
molecular target: cloned human 5-HT1A receptors (Homo sapiens, UniProt P08908); assay: 35S-GTPγS binding assay, 5-HT1A function; details: agonist potency
Give your result in nM as a bare value.

Test item NC(=O)c1ccc(F)c2c1CC(N(CC1CCc3[nH]c4ccc(F)cc4c3C1)C1CCC1)CO2 (single isomer, unassigned; (+)) [Compound 174c] ; cloned human 5-HT1A receptors (Homo sapiens, UniProt P08908); reported EC50 was 978

Field EC50 (system: cloned human 5-HT1A receptors (Homo sapiens, UniProt P08908)) for entry O=C(NC1CCCC1)c1ccc(F)c2c1CC(N(CCCc1c[nH]c3ccc(F)cc13)C1CCC1)CO2 (stereo not shown) = 7500

# value of EC50, cloned human 5-HT1A receptors (Homo sapiens, UniProt P08908), item CCN(CCc1c[nH]c2ccc(F)cc12)C1CCc2cccc(OC)c2C1 (stereo not shown) = 15

GET /values?item= COC(=O)c1ccc(F)c2c1CC(NCCCc1c[nH]c3ccc(F)cc13)CO2 (stereo not shown) &system= cloned human 5-HT1A receptors (Homo sapiens, UniProt P08908) returns EC50: 30.5

---

Target: cloned human 5-HT1A receptors (Homo sapiens)
Construct: expressed in transfected cells
Sequence (P08908 1-422): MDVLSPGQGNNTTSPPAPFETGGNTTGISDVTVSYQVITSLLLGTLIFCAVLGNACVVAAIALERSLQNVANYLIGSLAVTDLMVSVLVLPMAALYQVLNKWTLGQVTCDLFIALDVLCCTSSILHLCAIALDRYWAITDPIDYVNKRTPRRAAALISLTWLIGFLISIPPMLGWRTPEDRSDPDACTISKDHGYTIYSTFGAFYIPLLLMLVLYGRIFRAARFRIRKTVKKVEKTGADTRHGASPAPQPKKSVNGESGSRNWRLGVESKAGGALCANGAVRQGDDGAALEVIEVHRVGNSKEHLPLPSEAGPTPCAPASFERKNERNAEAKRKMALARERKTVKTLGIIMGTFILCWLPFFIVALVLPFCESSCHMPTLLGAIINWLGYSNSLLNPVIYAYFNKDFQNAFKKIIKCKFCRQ
Assay: 35S-GTPγS binding assay, 5-HT1A function
Format: biochemical
Conditions: agonist potency
pEC50: −log10 of the molar value.
Entry flag: Met if pEC50 reaches 6; Not met if it does not.

Q) Dear colleague, could you confirm whether CCN(CCCCc1coc2c(OC)cccc12)C1COc2c(F)ccc(C(N)=O)c2C1 (stereo not shown) has pEC50 at or above 6?
A) Met

Q) Reported pEC50 reaches at least 6 for CCCN(CCCCc1c[nH]c2ccc(F)cc12)C1COc2cccc(OC)c2C1 (stereo not shown) ?
A) Met

Q) Reported pEC50 at or above 6? NC(=O)c1ccc(F)c2c1OCC(NCCCCc1c[nH]c3ccc(F)cc13)C2 (stereo not shown)
A) Not met

Q) Does pEC50 meet or surpass 6 for CCN(CCCc1c[nH]c2c(F)cc(F)cc12)C1COc2c(C(N)=O)ccc(F)c2C1 (stereo not shown) ?
A) Not met

Q) Is the recorded value of pEC50 equal to or greater than 6 for this compound? CCN(CCCc1coc2c(OC)cccc12)C1COc2c(F)ccc(C(N)=O)c2C1 (stereo not shown)
A) Met

Q) hey, is pEC50 for this one >= 6? CCCN(CCCc1c[nH]c2ccc(F)cc12)[C@@H]1CCc2cccc(OC)c2C1 [Compound 47b]
A) Met

Q) Exam item: decide whether the reported pEC50 for CC(CCc1c[nH]c2ccc(F)cc12)N(CC1CC1)C1COc2c(F)ccc(C(N)=O)c2C1 (single isomer, unassigned; (+)) [Compound 15b] is at least 6.
A) Met

Q) Record CCCN(CCCc1c[nH]c2ccc(F)cc12)C1COc2cccc(OC)c2C1 (stereo not shown) ; criterion: pEC50 no lower than 6. Met?
A) Met

Q) # bool: pEC50 of CCCN(CCCc1c[nH]c2ccc(F)cc12)C1CCc2c(F)ccc(OC)c2C1 (single isomer, unassigned; (+)) [Compound 51a] >= 6
A) Met

Q) Check the entry COc1cccc2c1CC(N(CCCc1c[nH]c3ccccc13)CC1CC1)CO2 (stereo not shown) : does pEC50 equal or exceed 6?
A) Met

Q) Test whether the compound O=C(NCC1CC1)c1cccc2c1CC(N(CCCc1c[nH]c3c(F)cc(F)cc13)C1CCC1)CO2 (stereo not shown) records pEC50 of 6 or higher.
A) Not met

Q) Is the recorded value of pEC50 equal to or greater than 6 for this compound? NC(=O)c1cccc2c1CC(NCCCc1c[nH]c3ccc(F)cc13)CO2 (stereo not shown)
A) Not met
